studyTarget: Cytochrome P450 3A4 (Homo sapiens)
assayNotes: Cytochrome P450 Family 3 Subfamily A Member 4 (CYP3A4) small molecule antagonists: luciferase reporter qHTS assay (AID 1671201); note: nearly all actives have a fitted effect of over 50% in size
experimentalSetup: P450-Glo CYP3A4 enzyme, luciferin luminescence, 1 h; series mostly up to 115 µM
Results filed as inconclusive are left out. Activity calls are given as the source filed them. Calls come from the whole dose curve; as a rule, active = well fitted inhibition curve with a large enough effect in the repeat runs; inconclusive = weak or mixed curves; inactive = no such curve, though single readings can be large or run the other way.
readoutKind: outcome

Completed entries (count: 6):
- O=c1[nH]cnc2c1ncn2[C@H]1CC[C@@H](CO)O1: inactive
- CCOC(N)=O: inactive
- NS(=O)(=O)c1cc2c(cc1Cl)NCNS2(=O)=O: inactive
- NS(=O)(=O)O: inactive
- CC12CCC(CC1)C(C)(C)O2: inactive
- CN(C)CCOC(C)(c1ccccc1)c1ccccn1 (stereo not drawn): inactive

Query string: Which outcome value is on record for "COc1cccc(O)c1O" ?
Result string: inactive

Query string: Which outcome value is on record for "CN(C)C(=O)Nc1ccc(Cl)c(Cl)c1" ?
Result string: inactive

Query string: Which outcome value is on record for "Cc1cccc(C)c1" ?
Result string: inactive

---

assayNotes: qHTS assay to identify small molecule antagonists of the constitutive androstane receptor (CAR) signaling pathway - cell viability counter screen (AID 1224837); note: nearly all actives have a fitted effect of over 45% in size
experimentalSetup: HepG2-CYP2B6-hCAR viability, CellTiter-Fluor, 23 h, co-treated with 50 nM CITCO; series mostly up to 92.4 µM
Experimental: National Center for Advancing Translational Sciences [NCATS] NIH Chemical Genomics Center [NCGC] U.S. Environmental Protection Agency [EPA] National Institutes of Environmental Health Sciences [NIEHS] National Toxicology Program [NTP] […] A double-stable (hCAR and CYP2B6-2.2kb) transfected cell line, derived from human hepatoma (HepG2) cells, was utilized for the duration of the quantitative high-throughput screens. […] The fluorescence intensity in the plates was then measured using a ViewLux plate reader.
Inconclusive results are not listed. Active and inactive are the calls of the source. Calls come from the whole dose curve; as a rule, active = well fitted cell-killing curve with a large enough effect in the repeat runs; inconclusive = weak or mixed curves, or effect the other way; inactive = flat fitted curve, though single readings scatter.
Allowed answers: active, inactive

Query string: Record request — test call for "COc1ccc2cc(S(=O)(=O)N[C@H](CC(=O)N[C@H](Cc3ccc(CN4[C@H](C)CCC[C@@H]4C)cc3)C(=O)N(C)C(C)C)c3ccc4c(c3)OCO4)ccc2c1"
Result string: active

Query string: Record request — test call for "O=CC(=O)c1ccccc1"
Result string: inactive

Query string: Record request — test call for "COc1ccc(OC(F)(F)F)cc1CN[C@H]1CCCN[C@H]1c1ccccc1"
Result string: active

Query string: Record request — test call for "COc1ccc(CN(CCN(C)C)c2ccccn2)cc1"
Result string: inactive

Query string: Record request — test call for "CCCCCCc1ccc(O)cc1O"
Result string: inactive

Query string: Record request — test call for CC(=O)CC(c1ccccc1)c1c(O)c2ccccc2oc1=O (stereo unspecified)
Result string: inactive

---

assayNotes: qHTS RealTime-Glo MT Cell Viability Assay in HEK293 cells - 32 hour (AID 1224868); note: top concentration of the series differs between compounds; nearly all actives have a fitted effect of over 50% in size
experimentalSetup: RealTime-Glo luminescence; series mostly up to 76.8 µM
Source text: National Center for Advancing Translational Sciences [NCATS] NIH Chemical Genomics Center [NCGC] U.S. Environmental Protection Agency [EPA] National Institutes of Environmental Health Sciences [NIEHS] National Toxicology Program [NTP] U.S. Food and Drug Administration [FDA] Measure of cell viability is critical in the cell-base assay. Analysis of cell viability is necessary for the characterization of cell responses to cytotoxic drugs and environmental stress. […]
Results filed as inconclusive are left out. Calls of active or inactive are those of the source. Calls come from the whole dose curve; as a rule, active = well fitted cell-killing curve with a large enough effect in the repeat runs; inconclusive = weak or mixed curves, or effect the other way; inactive = flat fitted curve, though single readings scatter.
readoutKind: outcome

- C=C(C)C(=O)OCC(C)O (stereo not drawn): inactive
- CC(=O)CCC(=O)O: inactive
- NC(=O)n1c(O)c(C(=O)c2cccs2)c2cc(Cl)ccc21: inactive
